Cited source for all entries: patent US20260184710A1

Target: Cbl-b (Homo sapiens)
Construct: Cbl-b-HiBit KI Jurkat Cells were purchased from Promega; host or cells: Cbl-b-HiBiT knock-in Jurkat cells
Experiment: Cbl-b Degradation Method A (FACS, anti-Cbl-b antibody staining)
Type: cell-based
Details: Jurkat, Cbl-b-HiBit KI Jurkat Cells, incubated at least 20 hours; maximum degradation observed; read-out: Cbl-b Degredation Method A Dmax (%)
Recorded Metric: Dmax

| Compound | Observed Result |
| --- | --- |
| Cn1cnnc1C[C@]1(c2cccc(N3Cc4c(cc(CN5CCN(C[C@H]6CC[C@H](OC7CCN(c8cccc9c8n(C(F)F)c(=O)n9C8CCC(=O)NC8=O)CC7)CC6)CC5(C)C)cc4C(F)(F)F)C3=O)c2)C[C@H](C#N)C1 (stereo partly shown) | 35 to 70% |
| C[C@H]1CN(C[C@H]2CC[C@@H](OC3CCN(c4ccc5c(c4F)CN(C4CCC(=O)NC4=O)C5=O)CC3)CC2)CCN1Cc1cc2c(c(C(F)(F)F)c1)CN(c1cccc(C3(Cc4nncn4C)COC3)c1)C2=O (stereo partly shown) | > 70% |
| Cc1cc(N2CCC(O[C@H]3CC[C@H](CN4CCN(Cc5cc(C(F)(F)F)c6cn(-c7cccc(C8(Cc9nncn9C)CC(C#N)C8)c7)nc6c5)C(C)(C)C4)CC3)CC2)c(F)c2c1C(=O)N(C1CCC(=O)NC1=O)C2 (stereo partly shown) | < 35% |

# evaluate next
**Query** What value of Dmax has been recorded for this entry: CC1c2nc(N3CCC(O[C@H]4CC[C@@H](CN5C[C@@H]6C[C@H]5CN6Cc5cc6c(c(C(F)(F)F)c5)CN(c5cccc(C7(Cc8nncn8C)CCC7)c5)C6=O)CC4)CC3)ccc2C(=O)N1C1CCC(=O)NC1=O (stereo partly shown)
**Result** 35 to 70%

----------
Molecular target: Cbl-b (Homo sapiens, UniProt Q13191)
Construct: Cbl-b-HiBit KI Jurkat Cells were purchased from Promega; host or cells: Cbl-b-HiBiT knock-in Jurkat cells
Sequence (Q13191 whole entry): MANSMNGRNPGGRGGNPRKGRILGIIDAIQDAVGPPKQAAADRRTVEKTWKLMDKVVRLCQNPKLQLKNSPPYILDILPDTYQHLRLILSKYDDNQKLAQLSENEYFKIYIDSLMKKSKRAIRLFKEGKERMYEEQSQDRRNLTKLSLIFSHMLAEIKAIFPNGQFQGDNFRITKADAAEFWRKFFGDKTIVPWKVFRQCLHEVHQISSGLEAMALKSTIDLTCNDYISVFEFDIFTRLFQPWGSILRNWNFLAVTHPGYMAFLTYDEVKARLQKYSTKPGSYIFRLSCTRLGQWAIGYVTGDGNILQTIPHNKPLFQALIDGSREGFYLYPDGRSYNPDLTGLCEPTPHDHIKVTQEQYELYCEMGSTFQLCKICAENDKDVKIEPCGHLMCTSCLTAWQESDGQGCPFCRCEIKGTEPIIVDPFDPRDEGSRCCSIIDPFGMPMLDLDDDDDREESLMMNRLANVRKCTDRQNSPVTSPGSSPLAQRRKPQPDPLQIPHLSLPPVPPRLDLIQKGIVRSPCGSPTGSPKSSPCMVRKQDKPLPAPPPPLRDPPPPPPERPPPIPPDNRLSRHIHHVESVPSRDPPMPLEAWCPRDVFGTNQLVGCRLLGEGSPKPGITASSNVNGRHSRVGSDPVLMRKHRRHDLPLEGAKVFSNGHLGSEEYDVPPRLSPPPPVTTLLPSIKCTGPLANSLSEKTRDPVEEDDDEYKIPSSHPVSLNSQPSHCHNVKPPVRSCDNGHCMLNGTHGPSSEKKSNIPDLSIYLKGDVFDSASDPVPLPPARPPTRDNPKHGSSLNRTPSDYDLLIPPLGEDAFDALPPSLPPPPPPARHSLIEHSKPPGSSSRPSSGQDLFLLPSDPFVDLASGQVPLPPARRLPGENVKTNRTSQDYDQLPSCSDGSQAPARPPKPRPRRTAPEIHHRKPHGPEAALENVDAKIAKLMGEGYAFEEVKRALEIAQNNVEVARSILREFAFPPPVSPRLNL
Test: Cbl-b Degradation Method B (Nano-Glo HiBiT lytic detection)
Assay type: cell-based
Conditions: Cbl-b-HiBit KI Jurkat Cells, incubated at least 6-24 hours; maximum degradation observed; read-out: Cbl-b Degredation Method B Dmax (%)
Documented Dmax across a set of molecules

Recorded results for 5 molecules are shown here.
| Molecule | Target Entity | Recorded Metric | Observed Result |
| --- | --- | --- | --- |
| Cn1cnnc1CC1(c2cccc(N3Cc4c(cc(N5CC6(CCN(CC7CN(c8ccc9c(c8)C(=O)N(C8CCC(=O)NC8=O)C9=O)C7)CC6)C5)cc4C(F)(F)F)C3=O)c2)COC1 (stereo not shown) | Cbl-b (Homo sapiens, UniProt Q13191) | Dmax | 35 to 70% |
| Cn1cnnc1CC1(c2cccc(N3Cc4c(cc(N5CC6(CCN(CC7CCN(c8ccc9c(c8F)CN(C8CCC(=O)NC8=O)C9=O)CC7)CC6)C5)cc4C(F)(F)F)C3=O)c2)COC1 (stereo not shown) | Cbl-b (Homo sapiens, UniProt Q13191) | Dmax | 35 to 70% |
| COc1c(N2CCC(CN3CCC4(CC3)CN(c3cc5c(c(C(F)(F)F)c3)CN(c3cccc(C6(Cc7nncn7C)COC6)c3)C5=O)C4)CC2)ccc2c1CN(C1CCC(=O)NC1=O)C2=O (stereo not shown) | Cbl-b (Homo sapiens, UniProt Q13191) | Dmax | 35 to 70% |
| Cn1cnnc1CC1(c2cccc(-n3cc4c(C(F)(F)F)cc(CN5CCC[C@H](CN6CCN(C[C@H]7CC[C@@H](OC8CCN(c9ccc%10c(c9F)CN(C9CCC(=O)NC9=O)C%10=O)CC8)CC7)CC6)C5)cc4n3)c2)COC1 (stereo partly shown) | Cbl-b (Homo sapiens, UniProt Q13191) | Dmax | > 70% |
| CC1CN(C[C@H]2CC[C@H](OC3CCN(c4ccc5c(c4)n(C(C)C)c(=O)n5C4CCC(=O)NC4=O)CC3)CC2)CCN1Cc1cc2c(c(C(F)(F)F)c1)CN(c1cccc(C3(Cc4nncn4C)CC(C#N)C3)c1)C2=O (stereo partly shown) | Cbl-b (Homo sapiens, UniProt Q13191) | Dmax | > 70% |

**Query** What value of Dmax has been recorded for this entry: CC(C)n1c(=O)n(C2CCC(=O)NC2=O)c2ccc(N3CCC(O[C@H]4CC[C@H](CN5CCN(Cc6cc7c(c(C(F)(F)F)c6)CN(c6cccc([C@]8(Cc9nncn9C)C[C@@H](C#N)C8)c6)C7=O)C(C)(C)C5)CC4)CC3)cc21 (stereo partly shown)
**Result** > 70%

**Query** What value of Dmax has been recorded for this entry: C[C@@H]1CN(Cc2cc3c(c(C(F)(F)F)c2)CN(c2cccc(C4(Cc5nncn5C)COC4)c2)C3=O)CCN1C[C@H]1CC[C@H](OC2CCN(c3ccc4c(c3F)CN(C3CCC(=O)NC3=O)C4=O)CC2)CC1 (stereo partly shown)
**Result** > 70%

**Query** What value of Dmax has been recorded for this entry: CC1c2nc(N3CCC(O[C@H]4CC[C@H](CN5CCN(Cc6cc(C(F)(F)F)c7cn(-c8cccc(C9(Cc%10nncn%10C)CC(C#N)C9)c8)nc7c6)C(C)(C)C5)CC4)CC3)ccc2C(=O)N1C1CCC(=O)NC1=O (stereo partly shown)
**Result** 35 to 70%

**Query** What value of Dmax has been recorded for this entry: CC(C)n1c(=O)n(C2CCC(=O)NC2=O)c2ccc(N3CCC(CN4CCC5(CC4)CN(c4cc6c(c(C(F)(F)F)c4)CN(c4cccc([C@]7(Cc8nncn8C)C[C@@H](C#N)C7)c4)C6=O)C5)CC3)cc21 (stereo partly shown)
**Result** 35 to 70%

**Query** What value of Dmax has been recorded for this entry: Cn1cnnc1CC1(c2cccc(N3Cc4c(cc(N5CC6(CCN(CC7CCN(c8ccc9c(c8Cl)CN(C8CCC(=O)NC8=O)C9=O)CC7)CC6)C5)cc4C(F)(F)F)C3=O)c2)COC1 (stereo not shown)
**Result** 35 to 70%

----------
Molecular target: Cbl-b (Homo sapiens)
Construct: Cbl-b-HiBit KI Jurkat Cells were purchased from Promega; host or cells: Cbl-b-HiBiT knock-in Jurkat cells
Experiment: Cbl-b Degradation Method B (Nano-Glo HiBiT lytic detection)
Assay type: cell-based
Settings: Cbl-b-HiBit KI Jurkat Cells, incubated at least 6-24 hours; half maximal degradation; read-out: Cbl-b Degredation Method B IC50
Recorded Metric: DC50

Recorded results for 2 compounds are shown here.
| Compound | Target Entity | DC50 |
| --- | --- | --- |
| Cc1cc(N2CCC(O[C@H]3CC[C@H](CN4CCN(Cc5cc(C(F)(F)F)c6cn(-c7cccc(C8(Cc9nncn9C)CC(C#N)C8)c7)nc6c5)C(C)(C)C4)CC3)CC2)c(F)c2c1C(=O)N(C1CCC(=O)NC1=O)C2 (stereo partly drawn) [Example 292] | Cbl-b (Homo sapiens) | 50 to 500 nM |
| Cn1cnnc1CC1(c2cccc(N3Cc4c(cc(CN5CCC(CN6CCN(CC7CCN(c8ccc9c(c8)C(=O)N(C8CCC(=O)NC8=O)C9=O)CC7)CC6)CC5)cc4C(F)(F)F)C3=O)c2)COC1 (stereo not drawn) [Example 46] | Cbl-b (Homo sapiens) | > 500 nM |

# evaluate next
**Query** Look up DC50 with Cbl-b (Homo sapiens) for this compound: Cn1cnnc1CC1(c2cccc(N3Cc4c(cc(CN5CCCC(N6CC7(CCN(c8ccc9c(c8)C(=O)N(C8CCC(=O)NC8=O)C9=O)CC7)C6)C5)cc4C(F)(F)F)C3=O)c2)COC1 (stereo not drawn) [Example 108]
**Result** 5 to 50 nM

----------
Target: Cbl-b (Homo sapiens, UniProt Q13191)
Construct: Cbl-b-HiBit KI Jurkat Cells were purchased from Promega; host or cells: Cbl-b-HiBiT knock-in Jurkat cells
Experiment: Cbl-b Degradation Method B (Nano-Glo HiBiT lytic detection)
Format: cell-based
Settings: Cbl-b-HiBit KI Jurkat Cells, incubated at least 6-24 hours; half maximal degradation; read-out: Cbl-b Degredation Method B IC50
Recorded Metric: DC50

| Molecule | Observed Result |
| --- | --- |
| COc1c(N2CCC(O[C@H]3CC[C@H](CN4CCN(Cc5cc6c(c(C(F)(F)F)c5)CN(c5cccc([C@]7(Cc8nncn8C)C[C@@H](C#N)C7)c5)C6=O)CC4)CC3)CC2)ccc2c1CN(C1CCC(=O)NC1=O)C2=O (stereo partly drawn) [Example 199] | < 5 nM |
| Cn1cnnc1CC1(c2cccc(N3Cc4c(cc(CN5CCN(C[C@H]6CC[C@H](OC7CCN(c8ccc9c(c8F)CN(C8CCC(=O)NC8=O)C9=O)CC7)CC6)CC5(C)C)cc4C(F)(F)F)C3=O)c2)CC(C#N)C1 (stereo partly drawn) [Example 254] | 5 to 50 nM |

# evaluate next
**Query** Look up DC50 with Cbl-b (Homo sapiens, UniProt Q13191) for this molecule: Cn1cnnc1CC1(c2cccc(N3Cc4c(cc(CNC5CC(Oc6ccc7c(c6)C(=O)N(C6CCC(=O)NC6=O)C7=O)C5)cc4C(F)(F)F)C3=O)c2)COC1 (stereo not drawn) [Example 37]
**Result** > 500 nM
